- Target under test: human glucagon receptor (human) (UniProt P47871)
- Sequence (P47871 26-477): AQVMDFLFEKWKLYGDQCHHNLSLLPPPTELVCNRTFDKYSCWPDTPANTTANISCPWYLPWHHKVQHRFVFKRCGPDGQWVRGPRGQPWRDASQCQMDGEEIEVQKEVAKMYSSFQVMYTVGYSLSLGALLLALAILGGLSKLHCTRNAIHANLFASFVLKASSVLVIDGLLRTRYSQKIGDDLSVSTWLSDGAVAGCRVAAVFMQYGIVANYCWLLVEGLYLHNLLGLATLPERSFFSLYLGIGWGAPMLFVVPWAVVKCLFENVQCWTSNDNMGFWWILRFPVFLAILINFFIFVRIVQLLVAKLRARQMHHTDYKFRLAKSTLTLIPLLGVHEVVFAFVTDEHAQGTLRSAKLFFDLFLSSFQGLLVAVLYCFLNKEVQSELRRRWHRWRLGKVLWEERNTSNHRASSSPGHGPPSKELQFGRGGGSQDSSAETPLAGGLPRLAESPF
- Assay overview: cell-based or functional assay
Non-standard residues stand in square brackets, D forms with d. No end group written: not given here. αMeF = C[C@](N)(Cc1ccccc1)C(=O)O; Aib = CC(C)(N)C(=O)O
cAMP Rel EC50 (1% HSA): recorded values
# output: bare number, implied unit µM

Completed entries (count: 5):
Binder: YXQGTXTSDXXIXLDXKAAXEFIEXLIEGGPSSGAPPPSGGGE (synthetic construct; SITE 2: note = 2-Aminoisobutyric Acid; SITE 6: note = alpha-methyl-2-fluoro-L-phenylalanine; SITE 10: note = 3-(4-Pyridyl)-L-alanine; SITE 11: note = alpha-methyl-L-serine; SITE 13: note = alpha-methyl-leucine; SITE 16: note = L-ornithine; SITE 17: note = Lysine is chemically mo) [Example 745]
cAMP Rel EC50 (1% HSA) [µM]: 0.266

Binder: YXQGTFTSDXSQXLDXKAQXAFIEYLIAXGPSSGEPPPSGSEE (non-natural residues; lipidated Lys; C-terminal amide; synthetic construct; SITE 2: note = 2-Aminoisobutyric Acid; SITE 10: note = 3-(4-Pyridyl)-L-alanine; SITE 13: note = alpha-methyl-leucine; SITE 16: note = L-ornithine; SITE 17: note = Lysine is chemically modified through conjugation of the epsilon-amino group of the Lysine side chain with D-Glutami) [Example 1101]
cAMP Rel EC50 (1% HSA) [µM]: 0.827

Binder: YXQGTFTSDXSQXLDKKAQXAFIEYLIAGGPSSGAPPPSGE (Aib, 4Pal, αMeL, Me4Pal; acylated lysine; amide; synthetic construct; SITE 2: note = 2-Aminoisobutyric Acid; SITE 10: note = 3-(4-Pyridyl)-L-alanine; SITE 13: note = alpha-methyl-leucine; SITE 17: note = Lysine is chemically modified through conjugation of the epsilon-amino group of the Lysine side chain with (Glu)2-(gamma-Glu)-CO-(CH2)16-CO2H; SI) [Example 1087]
cAMP Rel EC50 (1% HSA) [µM]: 2.46

Binder: YXQGTXTSDXXIXLDXXAQXEFIEXLIEGGPSSGAPPPSGGGE (synthetic construct; SITE 2: note = 2-Aminoisobutyric Acid; SITE 6: note = alpha-methyl-2-fluoro-L-phenylalanine; SITE 10: note = 3-(4-Pyridyl)-L-alanine; SITE 11: note = alpha-methyl-L-serine; SITE 13: note = alpha-methyl-leucine; SITE 16: note = L-ornithine; SITE 17: note = Ornithine is chemically) [Example 1213]
cAMP Rel EC50 (1% HSA) [µM]: 0.268

Binder: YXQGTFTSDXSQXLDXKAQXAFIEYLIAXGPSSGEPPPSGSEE (non-natural residues, C-terminal amide, acylated Lys with fatty diacid; synthetic construct; SITE 2: note = 2-Aminoisobutyric Acid; SITE 10: note = 3-(4-Pyridyl)-L-alanine; SITE 13: note = alpha-methyl-leucine; SITE 16: note = L-ornithine; SITE 17: note = Lysine is chemically modified through conjugation of the epsilon-amino group of the Lysine side chain with (2-[2-(2-) [Example 1095]
cAMP Rel EC50 (1% HSA) [µM]: 0.337

Query string: Returns the measured cAMP Rel EC50 (1% HSA) for the input binder. Input: YXQGTFTSDXSXXLDXKAQXAFIEYLIAGGPSSGAPPPSGSEE (Lys acylated γGlu-C18 diacid; non-natural residues; C-amide; synthetic construct; SITE 2: note = 2-Aminoisobutyric Acid; SITE 10: note = 3-(4-Pyridyl)-L-alanine; SITE 12: note = L-ornithine; SITE 13: note = alpha-methyl-leucine; SITE 16: note = L-ornithine; SITE 17: note = Lysine is chemically modified through conjugation of the epsilon-amino group of the Lys) [Example 1063]
Result string: 2.29

Query string: Also, YXQGTFTSDXXQXLDXKAQXQFIQXLIAGGPSSGEPPPSGGGE (not fully specified; non-natural residues; C18 diacid-γGlu-e on Lys; C-terminal amide; synthetic construct; SITE 2: note = 2-Aminoisobutyric Acid; SITE 10: note = 3-(4-Pyridyl)-L-alanine; SITE 11: note = alpha-methyl-L-serine; SITE 13: note = alpha-methyl-leucine; SITE 16: note = L-ornithine; SITE 17: note = Lysine is chemically modified through conjugation of the epsilon-amino group) [Example 1133] please.
Result string: 0.216

Query string: Also, YXQGTXTSDXSILLDKKAQXAFIEXLEEGGPSSGAPPPSGGGE (synthetic construct; SITE 2: note = 2-Aminoisobutyric Acid; SITE 6: note = alpha-methyl-2-fluoro-L-phenylalanine; SITE 10: note = 3-(4-Pyridyl)-L-alanine; SITE 17: note = Lysine is chemically modified through conjugation of the epsilon-amino group of the Lysine side chain with (gamma-Glu)2-CO-(CH2)1) [Example 668] please.
Result string: 0.203

Query string: Also, YXQGTFTSDXSQXLDKKAQXAFIEYLIEXGPSSGAPPPSGSE (γGlu-C18 diacid on Lys; non-natural residues; amide; synthetic construct; SITE 2: note = 2-Aminoisobutyric Acid; SITE 10: note = 3-(4-Pyridyl)-L-alanine; SITE 13: note = alpha-methyl-leucine; SITE 17: note = Lysine is chemically modified through conjugation of the epsilon-amino group of the Lysine side chain with (gamma-Glu)-(D-Glutamic acid)2-CO-(CH2)) [Example 926] please.
Result string: 1.38

Query string: Also, YXQGTFTSDXSQXLDXKAQXAFIQXLIAXGPSSGEPPPSGGGE (Lys acylated γGlu-C18 diacid; non-natural residues; C-amide; synthetic construct; SITE 2: note = 2-Aminoisobutyric Acid; SITE 10: note = 3-(4-Pyridyl)-L-alanine; SITE 13: note = alpha-methyl-leucine; SITE 16: note = L-ornithine; SITE 17: note = Lysine is chemically modified through conjugation of the epsilon-amino group of the Lysine side chain with D-Glutami) [Example 1130] please.
Result string: 1.24

Query string: Also, Y[Aib]QGT[αMeF]TSDYSILLDKIAAKNFIEYLVEGGPSSGEPPPSEG-NH2 (not fully specified (residue 20)) [Example 307] please.
Result string: 1.88

Query string: Also, YXQGTFTSDXSQXLDXKAQXQFIQXLIEXGPSSGEPPPSGGGE (non-natural residues; lysine acylated with C18 diacid; C-terminal amide; synthetic construct; SITE 2: note = 2-Aminoisobutyric Acid; SITE 10: note = 3-(4-Pyridyl)-L-alanine; SITE 13: note = alpha-methyl-leucine; SITE 16: note = L-ornithine; SITE 17: note = Lysine is chemically modified through conjugation of the epsilon-amino group of the Lysine side chain with D-Glutami) [Example 1129] please.
Result string: 0.796
